Target Entity: PRMT5/MEP50 (Homo sapiens)
Construct: Flag-PRMT5; made in house; host or cells: Spodoptera frugiperda (SF9), baculovirus
Sequence (O14744 with tags, fused parts or gaps): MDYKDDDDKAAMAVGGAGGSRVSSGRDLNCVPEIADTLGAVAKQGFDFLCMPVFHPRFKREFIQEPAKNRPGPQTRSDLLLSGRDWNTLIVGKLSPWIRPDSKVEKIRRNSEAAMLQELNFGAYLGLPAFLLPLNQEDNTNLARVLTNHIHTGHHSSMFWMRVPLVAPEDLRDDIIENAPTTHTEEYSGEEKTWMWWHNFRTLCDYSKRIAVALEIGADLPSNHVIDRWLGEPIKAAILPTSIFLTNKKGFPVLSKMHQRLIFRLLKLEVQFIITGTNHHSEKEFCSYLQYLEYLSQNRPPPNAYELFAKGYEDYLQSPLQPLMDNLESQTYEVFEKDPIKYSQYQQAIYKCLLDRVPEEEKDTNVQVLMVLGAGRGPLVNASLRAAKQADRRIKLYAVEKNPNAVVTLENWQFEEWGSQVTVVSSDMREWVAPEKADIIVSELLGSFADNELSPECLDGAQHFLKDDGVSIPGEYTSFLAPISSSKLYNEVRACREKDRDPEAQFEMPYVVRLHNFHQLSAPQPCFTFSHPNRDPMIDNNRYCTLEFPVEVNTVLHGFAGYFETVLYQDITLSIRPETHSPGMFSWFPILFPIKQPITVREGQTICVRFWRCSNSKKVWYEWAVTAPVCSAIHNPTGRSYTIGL
Sequence (Q9BQA1 with tags, fused parts or gaps partner limits assumed): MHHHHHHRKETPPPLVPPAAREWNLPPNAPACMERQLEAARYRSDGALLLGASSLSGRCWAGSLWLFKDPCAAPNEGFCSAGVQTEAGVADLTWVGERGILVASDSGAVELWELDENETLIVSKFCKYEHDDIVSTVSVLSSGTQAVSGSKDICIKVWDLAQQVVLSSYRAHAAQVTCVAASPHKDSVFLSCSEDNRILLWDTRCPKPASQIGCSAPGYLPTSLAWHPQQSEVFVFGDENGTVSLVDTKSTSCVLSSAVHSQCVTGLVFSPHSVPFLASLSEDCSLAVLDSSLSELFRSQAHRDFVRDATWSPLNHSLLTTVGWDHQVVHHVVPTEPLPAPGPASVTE
Method Description: PRMT5 Biochemical Assay (PRMT5/MEP50 enzyme assay on histone H4 peptide substrate, 3H-SAM Flashplate)
Property: IC50

NCCCSC[C@H]1O[C@@H](n2cnc3c(N)ncnc32)[C@H](O)[C@@H]1O; < 0.1 µM

Now, please, on to the next molecule.
Request: Given the entry O=C(CC1NC(N2CCN(Cc3ccccc3)CC2)=NC1=O)Nc1ccccc1 (centres unmarked) , what IC50 was observed with PRMT5/MEP50 (Homo sapiens)?
Result: 10 to 50 µM

###

Target Entity: PRMT5/MEP50 (Homo sapiens)
Construct: Flag-PRMT5; made in house; host or cells: Spodoptera frugiperda (SF9), baculovirus
Method Description: PRMT5 Biochemical Assay (PRMT5/MEP50 enzyme assay on histone H4 peptide substrate, 3H-SAM Flashplate)
Setup Conditions: PRMT5 biochemical assay; read-out: Biochemical IC50
pIC50: −log10 of the molar value.
Property: pIC50

Cc1ccc(C(=O)CC2NC(N3CCN(Cc4ccc(F)cc4)CC3)=NC2=O)cc1 (stereo not shown) [Compound 35-14]; 5.00 to 6.00
COc1ccccc1NC(=O)CC1NC(N2CCN(c3ccccc3)CC2)=NC1=O (stereo not shown) [Compound 60-14]; 4.30 to 5.00
NCCCCN(CC[C@H](N)C(=O)O)C[C@H]1O[C@@H](n2cnc3c(N)ncnc32)[C@H](O)[C@@H]1O [Compound 24-1]; > 7.00
CN(CCN(CCc1ccc(Cl)cc1)Cc1ccccc1)C[C@H]1O[C@@H](n2cnc3c(N)ncnc32)[C@H](O)[C@@H]1O [Compound 51-1]; 6.00 to 7.00
Cc1cc(NC(=O)CC2NC(N3CCN(c4ccccc4)CC3)=NC2=O)ccc1Cl (stereo not shown) [Compound 74-14]; 5.00 to 6.00
CN1CCN(C2=NC(=O)C(CC(=O)Nc3ccc(Cl)cc3)N2)CC1 (stereo not shown) [Compound 2-14]; 5.00 to 6.00
CS(=O)(=O)N1CCC(Nc2cncc(C(=O)NC[C@H](O)CN3Cc4ccccc4C3)c2)CC1 [Compound 2-11]; > 7.00
CCOC(=O)c1ccc(NC(=O)CC2NC(N3CCN(c4ccccc4)CC3)=NC2=O)cc1 (stereo not shown) [Compound 20-14]; 6.00 to 7.00
CC(=O)N1CC(Nc2cc(C(=O)NC[C@@H](O)CN3CCc4ccccc4C3)ncn2)C1 [Compound 7-9]; > 7.00
CN(CCNCc1ccccc1F)C[C@H]1O[C@@H](n2cnc3c(N)ncnc32)[C@H](O)[C@@H]1O [Compound 15-1]; > 7.00

// each listed molecule needs a value for pIC50
1. CCOc1c(C)cc(S(=O)(=O)NCC2CCN(Cc3c(SC(C)C)nc4sccn34)CC2)cc1C [Compound 9-3]
2. CN1CCC(N(C)C[C@H]2O[C@@H](n3cnc4c(N)ncnc43)[C@H](O)[C@@H]2O)C1 (stereo partly shown) [Compound 85-1]
3. CN(CCN1CCC(c2ccccc2)CC1)CC1OC(n2cnc3c(N)ncnc32)[C@H](O)[C@@H]1O (stereo partly shown) [Compound 43-1]
4. O=C(CC1NC(N2CCN(c3ccccc3)CC2)=NC1=O)c1ccccc1Cl (stereo not shown) [Compound 2-6]
5. CN(C)c1cccc2c(S(=O)(=O)NC3CCN(Cc4ccco4)CC3)cccc12 [Compound 13-3]
6. CN(CCN1CCN(CCc2ccccc2)CC1)C[C@H]1O[C@@H](n2cnc3c(N)ncnc32)[C@H](O)[C@@H]1O [Compound 45-1]

Result:
["> 7.00", "6.00 to 7.00", "6.00 to 7.00", "6.00 to 7.00", "6.00 to 7.00", "6.00 to 7.00"]

Batch of 6 molecules: report pIC50 for each.
1. CN(C)c1cccc2c(S(=O)(=O)N[C@H]3CC(=O)N(c4ccccc4)C3)cccc12 [Compound 3-4]
2. CN(CCNCCOc1cccc(F)c1)C[C@H]1O[C@@H](n2cnc3c(N)ncnc32)[C@H](O)[C@@H]1O [Compound 73-1]
3. CN(CCC[C@@H](N)C(=O)O)C[C@H]1O[C@@H](n2cnc3c(N)ncnc32)[C@H](O)[C@@H]1O [Compound 32-1]
4. COCCNCCN(C)C[C@H]1O[C@@H](n2cnc3c(N)ncnc32)[C@H](O)[C@@H]1O [Compound 59-1]
5. CCN1CCN(C2=NC(=O)C(CC(=O)Nc3ccc(C)cc3)N2)CC1 (stereo not shown) [Compound 5-14]
6. Nc1ncnc2c1ncn2[C@@H]1O[C@H](CN(CCCC(=O)O)CCNCCc2ccc(Cl)cc2)[C@@H](O)[C@H]1O [Compound 80-1]

Result:
1. > 7.00
2. 6.00 to 7.00
3. 6.00 to 7.00
4. 6.00 to 7.00
5. 5.00 to 6.00
6. > 7.00

// for each molecule in input: emit pIC50
1. Nc1ncnc2c1ncn2[C@@H]1O[C@H](CSCCC(N)CO)[C@@H](O)[C@H]1O (stereo partly shown) [Compound 90-1]
2. CN(CCNC1CCNCC1)C[C@H]1O[C@@H](n2cnc3c(N)ncnc32)[C@H](O)[C@@H]1O [Compound 53-1]
3. CN(CCN)C[C@H]1O[C@@H](n2cnc3c(N)ncnc32)[C@H](O)[C@@H]1O [Compound 27-1]
4. Cc1ccc(C(=O)CC2NC(N3CCc4ccccc4C3)=NC2=O)cc1 (stereo not shown) [Compound 29-14]

Result:
1: > 7.00; 2: 6.00 to 7.00; 3: 6.00 to 7.00; 4: 6.00 to 7.00

Could you report pIC50 for every entry in the following list?
1. CN(C)c1cccc2c(S(=O)(=O)NC3CCN(Cc4ccccc4)C3)cccc12 (stereo not shown) [Compound 1-5]
2. CN(CCNCc1ccc(F)cc1)C[C@H]1O[C@@H](n2cnc3c(N)ncnc32)[C@H](O)[C@@H]1O [Compound 16-1]
3. Cc1ccc(C(C)NCCN(C)C[C@H]2O[C@@H](n3cnc4c(N)ncnc43)[C@H](O)[C@@H]2O)cc1 (stereo partly shown) [Compound 3-1]
4. Cc1ccc(C(=O)CC2NC(N3CCN(c4ccccc4)CC3)=NC2=O)cc1 (stereo not shown) [Compound 1-14]
5. CC(C)N(CCNCCc1ccc(Cl)cc1)C[C@H]1O[C@@H](n2cnc3c(N)ncnc32)[C@H](O)[C@@H]1O [Compound 77-1]

Result:
1: 6.00 to 7.00; 2: > 7.00; 3: 6.00 to 7.00; 4: 6.00 to 7.00; 5: 6.00 to 7.00
